Source: paper PMC4965148

Protocol: Plasma and brain concentrations after dosing
Type: in vivo, rat
Measurement setup: rat, brain/plasma, other: subcutaneous or oral (pooled over all rat studies), rats

>  <Compound string>
c1cn(-c2cc(NC3=NC[C@@]4(CN5CCC4CC5)O3)ncn2)cn1

>  <Kp>
0.28

$$$$

----------
Protocol: Plasma and brain concentrations after dosing
Format: in vivo, rat
Measurement setup: rat, brain, sc, 3 mg/kg, Rat N40 Gating; 3 mg/kg sc; 30 min; read-out: Brain Mean ± SD

>  <Compound string>
c1cn(-c2cc(NC3=NC[C@@]4(CN5CCC4CC5)O3)ncn2)cn1

>  <concentration at 30 min [nM]>
372

$$$$
